system: MCF7; experiment: Antiproliferative activity against human MCF7 cells assessed as cell viability incubated for 72 hrs by MTT assay; assay type: functional, cell-based; details: MCF7, 72 h
Reported property: log10 of IC50 (log10 of the value in nM)
Values are log10 of IC50 in nM.

Guide cases for log10 of IC50, answers given:
Molecule smiles | Assay target | log10 of IC50
CN(c1ccc(F)cc1)c1nc(/C=C/c2ccccc2)nc2ccccc12 | MCF7 | 3.03
COc1ccc(N(C)c2nc(/C=C/c3ccccc3)nc3ccccc23)cc1OC | MCF7 | 3.31
COc1ccc(N(C)c2nc(C)nc3ccccc23)cc1 | MCF7 | 1.15
CN(c1ccc2occc2c1)c1nc(/C=C/c2ccccc2)nc2ccccc12 | MCF7 | 3.41
CN(c1ccc2c(c1)OCO2)c1nc(/C=C/c2ccccc2)nc2ccccc12 | MCF7 | 3.21
COc1ccc(N(C)c2nc(/C=C/c3cccc(OC)c3)nc3ccccc23)cc1 | MCF7 | 2.04

Query `COc1ccc(N(C)c2nc(/C=C/c3cccc(OC)c3OC)nc3ccccc23)cc1` yields log10 of IC50 of 3.61

log10 of IC50 reading for `COc1ccc(N(C)c2nc(/C=C/c3ccccc3)nc3ccccc23)c(OC)c1` : 3.28

Entry `COc1ccc(N(C)c2nc(/C=C/c3cccc(F)c3)nc3ccccc23)cc1` , log10 of IC50 reported as 2.41

Data point: `COc1ccc(N(C)c2nc(/C=C/c3ccc(C)cc3)nc3ccccc23)cc1` ; log10 of IC50 = 3.49

Where do these numbers come from? They come from ChEMBL document CHEMBL6092217.
